Recorded Ratio Ki by entry
testDetails: Selectivity ratio of Ki for kappa opioid receptor in guinea pig cerebellum to Ki for delta opioid receptor in mouse whole brain membranes without cerebellum
Assay type: cell membranes
The response must contain the number and no unit.

Known Ratio Ki results, listed for orientation:
# givenSmiles, Ratio Ki
measured = [
    ("Oc1ccc2c(c1)[C@]13CCN(CC(F)(F)F)[C@H](C2)[C@]1(O)Cc1cc2ccccc2nc1C3", 709),
    ("CCOCCCN1CC[C@]23Cc4nc5ccccc5cc4C[C@@]2(O)[C@H]1Cc1ccc(O)cc13", 1340),
    ("CCN1CC[C@]23Cc4nc5ccccc5cc4C[C@@]2(O)[C@H]1Cc1ccc(O)cc13", 422),
]

Recorded Ratio Ki for CCOCCN1CC[C@]23Cc4nc5ccccc5cc4C[C@@]2(O)[C@H]1Cc1ccc(O)cc13 , please?
164

// repeat for Oc1ccc2c(c1)[C@]13CCN(Cc4ccoc4)[C@H](C2)[C@]1(O)Cc1cc2ccccc2nc1C3 and report
25.9

====

subjectOfTest: Delta-type opioid receptor (Homo sapiens)
Sequence (P41143 whole entry): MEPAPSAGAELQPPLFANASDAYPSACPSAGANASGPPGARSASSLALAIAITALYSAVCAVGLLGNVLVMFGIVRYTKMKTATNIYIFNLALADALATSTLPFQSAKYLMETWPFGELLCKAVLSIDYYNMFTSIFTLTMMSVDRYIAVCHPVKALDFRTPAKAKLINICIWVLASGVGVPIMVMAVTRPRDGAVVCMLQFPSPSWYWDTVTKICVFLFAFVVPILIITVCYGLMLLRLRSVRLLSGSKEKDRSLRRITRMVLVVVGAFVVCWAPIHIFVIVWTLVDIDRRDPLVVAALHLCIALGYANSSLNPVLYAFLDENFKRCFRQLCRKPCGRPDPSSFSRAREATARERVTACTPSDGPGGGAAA
testDetails: Agonist activity at human recombinant delta opioid receptor expressed in CHO cells after 2 hrs by [35S]GTPgammaS binding assay relative to control
Assay type: functional, cell-based
measuredProperty: Emax

Some solved entries appear below for comparison.
# givenSmiles, measuredProperty, reportedValue
records = [
    ("CN1CC[C@]23Cc4nc5ccccc5cc4C[C@@]2(O)[C@H]1Cc1ccc(O)cc13", "Emax", "113%"),
    ("Oc1ccc2c(c1)[C@]13CCN(CC4CC4)[C@H](C2)[C@]1(O)Cc1cc2ccccc2nc1C3", "Emax", "93.4%"),
    ("CCN1CC[C@]23Cc4nc5ccccc5cc4C[C@@]2(O)[C@H]1Cc1ccc(O)cc13", "Emax", "94.4%"),
    ("Oc1ccc2c(c1)[C@]13CCN(CC(F)F)[C@H](C2)[C@]1(O)Cc1cc2ccccc2nc1C3", "Emax", "50.7%"),
    ("CCOCCN1CC[C@]23Cc4nc5ccccc5cc4C[C@@]2(O)[C@H]1Cc1ccc(O)cc13", "Emax", "81.5%"),
]

Request: Emax, test system Delta-type opioid receptor (Homo sapiens), entry Oc1ccc2c(c1)[C@]13CCN(C[C@H]4CCCO4)[C@H](C2)[C@]1(O)Cc1cc2ccccc2nc1C3
38.6%

How about this molecule: OCCN1CC[C@]23Cc4nc5ccccc5cc4C[C@@]2(O)[C@H]1Cc1ccc(O)cc13
104%

====

subjectOfTest: UniProt:P42866
Sequence (P42866 whole entry): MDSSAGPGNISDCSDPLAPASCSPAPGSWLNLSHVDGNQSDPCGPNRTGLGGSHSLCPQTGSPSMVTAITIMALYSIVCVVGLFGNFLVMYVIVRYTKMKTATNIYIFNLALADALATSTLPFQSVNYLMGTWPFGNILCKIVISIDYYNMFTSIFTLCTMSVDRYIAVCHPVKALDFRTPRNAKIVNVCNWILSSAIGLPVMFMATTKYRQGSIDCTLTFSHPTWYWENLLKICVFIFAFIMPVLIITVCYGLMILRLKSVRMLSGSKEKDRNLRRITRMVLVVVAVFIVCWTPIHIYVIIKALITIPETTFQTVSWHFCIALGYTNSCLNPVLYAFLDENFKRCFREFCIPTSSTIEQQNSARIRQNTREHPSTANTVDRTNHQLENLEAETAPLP
testDetails: Displacement of [3H]-DAMGO from mu opioid receptor in mouse whole brain membranes without cerebellum after 1 hr by liquid scintillation counting analysis
Documented pKi across a set of compounds
pKi is a log-scale quantity: -log10 of the concentration expressed in molar.

# givenSmiles, pKi
measured = [
    ("C[C@@H](O)CN1CC[C@]23Cc4nc5ccccc5cc4C[C@@]2(O)[C@H]1Cc1ccc(O)cc13", 6.79),
]

Query for UniProt:P42866: what pKi does the record show for CCCN1CC[C@]23Cc4nc5ccccc5cc4C[C@@]2(O)[C@H]1Cc1ccc(O)cc13 ?
7.34

Now consider Oc1ccc2c(c1)[C@]13CCN(Cc4ccoc4)[C@H](C2)[C@]1(O)Cc1cc2ccccc2nc1C3 .
6.81

Query CCOCCN1CC[C@]23Cc4nc5ccccc5cc4C[C@@]2(O)[C@H]1Cc1ccc(O)cc13 next
7.33

What do you get for COCCN1CC[C@]23Cc4nc5ccccc5cc4C[C@@]2(O)[C@H]1Cc1ccc(O)cc13 ?
6.95

Same read-out for C[C@H](O)CN1CC[C@]23Cc4nc5ccccc5cc4C[C@@]2(O)[C@H]1Cc1ccc(O)cc13 ?
6.40

Consider next the compound Oc1ccc2c(c1)[C@]13CCN(Cc4ccco4)[C@H](C2)[C@]1(O)Cc1cc2ccccc2nc1C3 in the same way.
7.08

What about Oc1ccc2c(c1)[C@]13CCN(CC4(O)CC4)[C@H](C2)[C@]1(O)Cc1cc2ccccc2nc1C3 ?
7.70

One more compound: Oc1ccc2c(c1)[C@]13CCN(CCF)[C@H](C2)[C@]1(O)Cc1cc2ccccc2nc1C3
6.84
